Measured values drawn from patent US11312715B2 for this set.

test: Pharmacokinetic evaluation after single intravenous injection and single oral administration in mice; format: in vivo; details: mouse; female Balb/C mice, plasma, single IV / single PO study; read-out: Concentration integral AUC
Listed below: AUC values for each entry.

{"columns": ["smiles_data", "AUC"],
 "data": [
  ["Nc1nc(-c2ccc(F)cc2)c(-c2cc(Cl)nc(C(F)(F)F)c2)c2nccnc12", "15.7 µM·h"],
  ["Nc1nc(-c2ccc(F)cc2)c(-c2ccc3ncnn3c2)c2ncccc12", "259 µM·h"],
  ["Cc1cc(-c2c(-c3ccc(F)cc3)nc(N)c3nccnc23)cc(Cl)n1", "20.3 µM·h"],
  ["Nc1nc(-c2ccc(F)cc2)c(-c2ccc3ncnn3c2)c2nccnc12", "24.1 µM·h"],
  ["Cc1cc(-c2c(-c3ccc(F)cc3)nc(N)c3nccnc23)cc(C)n1", "16.7 µM·h"]
]}

----------
test: PK test of in vivo efficacy: plasma and tumor tissue drug concentration on day 20 of the CT26 study; design: species or system BALB/C mice; settings: BALB/c, mouse, tumor tissue / plasma, oral, 50 mpk, Group 5, 50 mpk once a day + CS1003; time point 4 h; read-out: T/P* Ratio (tumor tissue / plasma drug concentration)
Structures can show the parent of a compound that is named as a salt.

{"columns": ["compound", "Kp at 4 h"],
 "data": [
  ["Nc1nc(-c2ccc(F)cc2)c(-c2ccc3ncnn3c2)c2nccnc12 [Embodiment 6 hydrochloride]", 1.8]
]}

----------
assay: PK test of in vivo efficacy: plasma and tumor tissue drug concentration on day 20 of the CT26 study; set-up: species or system BALB/C mice; settings: BALB/C, mouse, plasma, po, 100 mg/kg, Group 3: 100 mg/kg once a day PO alone; day 20; plasma; read-out: T½ (converted)
Structures can show the parent of a compound that is named as a salt.

{"columns": ["molecule", "half-life (min)"],
 "data": [
  ["Nc1nc(-c2ccc(F)cc2)c(-c2ccc3ncnn3c2)c2nccnc12 [Embodiment 6 hydrochloride]", 48.6]
]}

----------
experiment: PK test of in vivo efficacy: plasma and tumor tissue drug concentration on day 20 of the CT26 study; design: species or system BALB/C mice; settings: BALB/c, mouse, tumor tissue / plasma, oral, 100 mpk, Group 3, 100 mpk alone; time point 4 h; read-out: T/P* Ratio (tumor tissue / plasma drug concentration)
Structures can show the parent of a compound that is named as a salt.

{"columns": ["compound", "Kp at 4 h"],
 "data": [
  ["Nc1nc(-c2ccc(F)cc2)c(-c2ccc3ncnn3c2)c2nccnc12 [Embodiment 6 hydrochloride]", 0.9]
]}

----------
test: PK test of in vivo efficacy: plasma and tumor tissue drug concentration on day 20 of the CT26 study; set-up: species or system BALB/C mice; conditions: BALB/C, mouse, tumor tissue / plasma, oral, 50 mg/kg, Group 7, 50 mpk twice a day alone; time point 4 h; read-out: T/P* Ratio (tumor tissue / plasma drug concentration)
Where a name gives a salt, the structure may show the parent alone.

{"columns": ["compound", "Kp at 4 h"],
 "data": [
  ["Nc1nc(-c2ccc(F)cc2)c(-c2ccc3ncnn3c2)c2nccnc12 [Embodiment 6 hydrochloride]", 9.8]
]}

----------
experiment: PK test of in vivo efficacy: plasma and tumor tissue drug concentration on day 20 of the CT26 study; set-up: species or system BALB/C mice; settings: BALB/C, mouse, plasma, po, 100 mg/kg, Group 6: 100 mg/kg once a day PO + CS1003 1 mg/kg; day 20; plasma
Counter-ions that a name gives are not always drawn.
result_type: AUC(0-t) (µM·h)

{"columns": ["compound", "result_type", "number"],
 "data": [
  ["Nc1nc(-c2ccc(F)cc2)c(-c2ccc3ncnn3c2)c2nccnc12 [Embodiment 6 hydrochloride]", "AUC(0-t)", 125]
]}
